Molecular target: COX-2 (Homo sapiens)
Sequence (P35354 18-604): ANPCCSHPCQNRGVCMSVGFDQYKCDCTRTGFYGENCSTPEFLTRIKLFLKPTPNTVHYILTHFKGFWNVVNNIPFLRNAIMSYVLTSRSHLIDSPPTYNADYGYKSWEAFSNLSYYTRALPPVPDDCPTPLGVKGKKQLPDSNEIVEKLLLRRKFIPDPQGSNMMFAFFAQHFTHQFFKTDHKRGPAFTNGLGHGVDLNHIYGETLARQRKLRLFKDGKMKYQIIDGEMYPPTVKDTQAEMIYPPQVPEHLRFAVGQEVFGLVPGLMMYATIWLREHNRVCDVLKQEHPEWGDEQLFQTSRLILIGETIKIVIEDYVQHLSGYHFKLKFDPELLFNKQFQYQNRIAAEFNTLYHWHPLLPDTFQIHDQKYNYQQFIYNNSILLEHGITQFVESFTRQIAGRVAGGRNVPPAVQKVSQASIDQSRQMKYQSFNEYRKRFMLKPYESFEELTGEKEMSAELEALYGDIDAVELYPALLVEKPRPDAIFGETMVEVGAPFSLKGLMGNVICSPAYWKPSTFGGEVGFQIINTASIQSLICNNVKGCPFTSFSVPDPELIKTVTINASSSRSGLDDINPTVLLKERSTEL
Test: Cell-based COX-2 activity assay in IL-1β-stimulated A549 cells
Design: endogenous in cells; host or cells: A549 stimulated with 1 ng/ml IL-1β
Details: 10 µM, 24 h, 1 ng/ml IL-1β
quantity: effect on COX-2 activity in IL-1β-stimulated A549 cells

smiles_representation	recorded_measurement
CCCCCCCCCCCC=C(CCCCC(=O)O)[N+](=O)[O-]	induced COX-2 activity
CCCCCCCCCC=C(CCCCCCC(=O)O)[N+](=O)[O-]	induced COX-2 activity

====

Exercise: for every item that follows, state its recorded pIC50.
Target: 5-LO (Homo sapiens, UniProt P09917)
Construct: endogenous in cells; host or cells: human PMNL from buffy coats
Experiment: 5-LO product formation (LTB4, 5-HETE) in intact PMNL, A23187 in absence of AA
Format: cell-based
Details: read-out: PMNL (w/o AA) 5-HETE IC50
Numbers only, as −log10 of the molar value.

smiles_representation	study_system	quantity	recorded_measurement
CCCCCCCCCCC=C(CCCCCCCC(=O)O)[N+](=O)[O-]	5-LO (Homo sapiens, UniProt P09917)	pIC50	5.69

Moving on to the next compound.
Task: Request body: readout pIC50, system 5-LO (Homo sapiens, UniProt P09917), query `CCCCCCCCC=C(CCCCCCCC(=O)O)[N+](=O)[O-]` . Return the value.
Result: 5.63

====

Exercise: for every item that follows, state its recorded IC50.
Biological target: 5-LO (Homo sapiens, UniProt P09917)
Construct: endogenous in cells; host or cells: human PMNL from buffy coats
Test: 5-LO product formation (LTB4, 5-HETE) in intact PMNL, A23187 + 20 µM AA
Assay type: cell-based
Conditions: PMNL (20 µM AA) 5-HETE IC50, intact PMNL, 15 min preincubation, A23187 2.5 µM + 20 µM AA; n.i. = no inhibition observed
Numbers only, in µM.

Some entries whose results are on file:
smiles_representation	IC50, µM
CCCCCCC=C(CCCCCCCC(=O)O)[N+](=O)[O-]	10.8
CCCCCCCCCC=C(CCCCCCC(=O)O)[N+](=O)[O-]	6.6
CCCCCCCCCC(=CCCCCCCC(=O)O)[N+](=O)[O-]	7.7

List reported IC50 for each of these compounds:
1. CCCCCCCCCCC=C(CCCCCCCC(=O)O)[N+](=O)[O-]
2. CCCCCCCCC(=CCCCCCCCC(=O)O)[N+](=O)[O-]
3. CCCCCCCCCCCC=C(CCCCC(=O)O)[N+](=O)[O-]

Result:
1. 4.7
2. 6.9
3. 9.1

List reported IC50 for each of these compounds:
1. CCCCCCCCCCCCCC=C(CCC(=O)O)[N+](=O)[O-]
2. CCCCCCCCCCCCC=C(CCCC(=O)O)[N+](=O)[O-]

Result:
9.2
7.5

====

Target: 5-LO (Homo sapiens, UniProt P09917)
Construct: endogenous in cells; host or cells: human PMNL from buffy coats
Sequence (P09917 1-674): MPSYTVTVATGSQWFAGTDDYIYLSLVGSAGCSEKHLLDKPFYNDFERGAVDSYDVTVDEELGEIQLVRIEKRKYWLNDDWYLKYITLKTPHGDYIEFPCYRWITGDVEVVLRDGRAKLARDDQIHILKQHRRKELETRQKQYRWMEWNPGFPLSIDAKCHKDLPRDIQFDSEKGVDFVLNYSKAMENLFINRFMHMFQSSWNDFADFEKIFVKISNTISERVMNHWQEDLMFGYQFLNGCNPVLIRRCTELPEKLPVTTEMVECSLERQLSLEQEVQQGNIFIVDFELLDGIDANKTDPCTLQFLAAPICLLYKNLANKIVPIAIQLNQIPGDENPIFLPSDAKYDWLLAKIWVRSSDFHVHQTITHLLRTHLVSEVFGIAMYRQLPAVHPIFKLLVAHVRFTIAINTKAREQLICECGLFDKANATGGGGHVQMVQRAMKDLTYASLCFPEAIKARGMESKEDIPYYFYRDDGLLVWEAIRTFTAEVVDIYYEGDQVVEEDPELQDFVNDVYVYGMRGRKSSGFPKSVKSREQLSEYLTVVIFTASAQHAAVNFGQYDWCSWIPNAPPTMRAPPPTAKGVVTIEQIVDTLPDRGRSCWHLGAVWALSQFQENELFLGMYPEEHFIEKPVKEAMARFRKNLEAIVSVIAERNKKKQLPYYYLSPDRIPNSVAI
Test: 5-LO product formation (LTB4, 5-HETE) in intact PMNL, A23187 + 20 µM AA
Assay type: cell-based
Conditions: PMNL (20 µM AA) 5-HETE IC50, intact PMNL, 15 min preincubation, A23187 2.5 µM + 20 µM AA; n.i. = no inhibition observed
quantity: IC50

List reported IC50 for each of these molecules:
1. CCCCCCCCCCC=C(CCCCCC(=O)O)[N+](=O)[O-] [18.7.7, 7-nitro-octadec-7-enoic acid]
2. CCCCCCC=C(CCCCCCCCCC(=O)O)[N+](=O)[O-] [18.11.11, 11-nitro-octadec-11-enoic acid]
3. CCCCCCCC=C(CCCCCCCCC(=O)O)[N+](=O)[O-] [18.10.10, 10-nitro-octadec-10-enoic acid]
4. CCCCCCCCCCCC(=CCCCCC(=O)O)[N+](=O)[O-] [18.6.7, 7-nitro-octadec-6-enoic acid]

Result:
1: 4.9 µM; 2: 5.7 µM; 3: 6 µM; 4: 11.2 µM

====

Exercise: for every item that follows, state its recorded IC50.
Target: 5-LO (Homo sapiens, UniProt P09917)
Construct: endogenous in cells; host or cells: human PMNL from buffy coats
Sequence (P09917 1-674): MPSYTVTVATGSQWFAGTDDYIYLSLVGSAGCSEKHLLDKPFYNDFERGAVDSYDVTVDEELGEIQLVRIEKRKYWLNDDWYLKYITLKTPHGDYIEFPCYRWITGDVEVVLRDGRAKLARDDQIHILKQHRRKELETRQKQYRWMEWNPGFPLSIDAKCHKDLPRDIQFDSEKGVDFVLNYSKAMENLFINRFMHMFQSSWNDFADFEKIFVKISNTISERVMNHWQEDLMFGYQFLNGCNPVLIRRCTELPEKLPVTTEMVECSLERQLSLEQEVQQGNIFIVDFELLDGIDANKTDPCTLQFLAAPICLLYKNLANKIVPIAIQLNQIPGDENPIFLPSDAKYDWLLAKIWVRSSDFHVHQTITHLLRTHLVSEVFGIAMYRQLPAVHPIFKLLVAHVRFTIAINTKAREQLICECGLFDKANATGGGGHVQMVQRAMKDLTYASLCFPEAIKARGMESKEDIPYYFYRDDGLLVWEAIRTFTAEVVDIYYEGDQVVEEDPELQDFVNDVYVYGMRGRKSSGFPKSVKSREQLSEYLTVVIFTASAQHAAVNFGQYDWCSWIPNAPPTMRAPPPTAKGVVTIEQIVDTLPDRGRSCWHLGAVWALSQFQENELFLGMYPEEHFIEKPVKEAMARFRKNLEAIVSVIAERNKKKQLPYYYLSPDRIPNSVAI
Assay: 5-LO product formation (LTB4, 5-HETE) in intact PMNL, A23187 in absence of AA
Type: cell-based
Conditions: read-out: PMNL (w/o AA) LTB4 IC50
For clarity, give the value followed by its unit.

List reported IC50 for each of these compounds:
1. CCCCCCCCC=C(CCCCCCCC(=O)O)[N+](=O)[O-]
2. CCCCCCCCCCC=C(CCCCCCCC(=O)O)[N+](=O)[O-]

Result:
1. 2580 nM
2. 2050 nM

====

Target: 5-LO (Homo sapiens)
Construct: endogenous in cells; host or cells: human PMNL from buffy coats
Test: 5-LO product formation (LTB4, 5-HETE) in intact PMNL, A23187 + 20 µM AA
Format: cell-based
Settings: PMNL (20 µM AA) LTB4 IC50, intact PMNL, 15 min preincubation, A23187 2.5 µM + 20 µM AA; n.i. = no inhibition observed
quantity: pIC50
Answers are plain numbers, as −log10 of the molar value.

Some entries whose results are on file:
compound	study_system	pIC50
CCCCCCCCCC(=CCCCCCCC(=O)O)[N+](=O)[O-] [18.8.9, 9-nitro-octadec-8-enoic acid]	5-LO (Homo sapiens)	5.24
CCCCCCCCCCC=C(CCCCCCCC(=O)O)[N+](=O)[O-] [20.9.9, 9-nitro-eicos-9-enoic acid]	5-LO (Homo sapiens)	5.38
CCCCCCC=C(CCCCCCCCCC(=O)O)[N+](=O)[O-] [18.11.11, 11-nitro-octadec-11-enoic acid]	5-LO (Homo sapiens)	5.23
CCCCCCCCCC=C(CCCCCCC(=O)O)[N+](=O)[O-] [18.8.8, 8-nitro-octadec-8-enoic acid]	5-LO (Homo sapiens)	5.10
CCCCCCCCCCCC=C(CCCCC(=O)O)[N+](=O)[O-] [18.6.6, 6-nitro-octadec-6-enoic acid]	5-LO (Homo sapiens)	5.11

Moving on to the next compound.
Task: Quick check: pIC50 of CCCCCCCCC(=CCCCCCCCC(=O)O)[N+](=O)[O-] [18.9.10, 10-nitro-octadec-9-enoic acid] ?
Result: 5.30

Source listed as paper PMC8637440.
